Field: Cmax. Provide a value for each of the molecules that follow.
Experiment notes: Pharmacokinetic evaluation after intravenous or gavage administration to dogs
Assay type: in vivo, Beagle dogs
Condition parameters: beagle, dog, in vivo, po, 5 mg/kg
Numeric only. Scale: ng/mL

What does the data say about its Cmax? Entry: O=C(c1c(F)cccc1-n1nccn1)N1CC2CN(c3nc4cc(Cl)ccc4o3)CC2C1 (stereo not drawn)
5640

Now consider Cc1ccc(-n2nccn2)c(C(=O)N2CC3CN(c4ncc5cc(F)ccc5n4)CC3C2)c1 (stereo not drawn) and answer again.
2310

Now consider Cc1ccc(-n2nccn2)c(C(=O)N2CC3CN(c4nc5cc(Cl)ccc5o4)CC3C2)c1 (stereo not drawn) and answer again.
1410

====

Experiment notes: Pharmacokinetic evaluation after intravenous or gavage administration to rats
Type: in vivo, SD rats
Condition parameters: SD, rat, in vivo; rats, po, 5 mg/kg; read-out: MRTINF
Metric: MRT inf (h)
Numeric only. Scale: h

What does the data say about its MRT inf? Entry: Cc1ccc(-n2nccn2)c(C(=O)N2CCN(c3nc4cc(Cl)ccc4o3)CC[C@H]2C)c1 [suvorexant, reference compound]
1.95

====

Experiment notes: Pharmacokinetic evaluation after intravenous or gavage administration to rats
Type: in vivo, SD rats
Condition parameters: SD, rat, in vivo; rats, iv, 2 mg/kg; read-out: Cl
Metric: clearance

What does the data say about its clearance? Entry: Cc1ccc(-n2nccn2)c(C(=O)N2CCN(c3nc4cc(Cl)ccc4o3)CC[C@H]2C)c1 [suvorexant, reference compound]
3.07 L/h/kg

====

Experiment notes: Pharmacokinetic evaluation after intravenous or gavage administration to dogs
Format: in vivo, Beagle dogs
Condition parameters: beagle, dog, in vivo, iv, 1 mg/kg
Field: MRT inf. Provide a value for each of the molecules that follow.
Numeric only. Scale: h

What does the data say about its MRT inf? Entry: Cc1ccc(-n2nccn2)c(C(=O)N2CC3CN(c4ncc5cc(F)ccc5n4)CC3C2)c1 (stereo not drawn) [Example 12]
0.97

Now consider Cc1ccc(-n2nccn2)c(C(=O)N2CC3CN(c4nc5cc(Cl)ccc5o4)CC3C2)c1 (stereo not drawn) [Example 1] and answer again.
4.97

Now consider O=C(c1c(F)cccc1-n1nccn1)N1CC2CN(c3nc4cc(Cl)ccc4o3)CC2C1 (stereo not drawn) [Example 3] and answer again.
2.91

====

Experiment notes: Pharmacokinetic evaluation after intravenous or gavage administration to rats
Format: in vivo, SD rats
Condition parameters: SD, rat, in vivo; rats, po, 5 mg/kg; read-out: T1/2 (converted)
Metric: half-life (min)
Numeric only. Scale: min

What does the data say about its half-life? Entry: Cc1ccc(-n2nccn2)c(C(=O)N2CCN(c3nc4cc(Cl)ccc4o3)CC[C@H]2C)c1 [suvorexant, reference compound]
59.4

====

Experiment notes: Pharmacokinetic evaluation after intravenous or gavage administration to dogs
Type: in vivo, Beagle dogs
Condition parameters: beagle, dog, in vivo, iv, 1 mg/kg
Field: clearance. Provide a value for each of the compounds that follow.
Numeric only. Scale: mL/min/kg

What does the data say about its clearance? Entry: Cc1ccc(-n2nccn2)c(C(=O)N2CC3CN(c4nc5cc(Cl)ccc5o4)CC3C2)c1 (centres unmarked) [Example 1]
6.14

Now consider Cc1ccc(-n2nccn2)c(C(=O)N2CC3CN(c4ncc5cc(F)ccc5n4)CC3C2)c1 (centres unmarked) [Example 12] and answer again.
14.7

====

Experiment notes: Pharmacokinetic evaluation after intravenous or gavage administration to rats
Format: in vivo, SD rats
Condition parameters: SD, rat, in vivo, po, 2.5 mg/kg
The threshold is inclusive: AUC(0-inf) of exactly 800 ng·h/mL counts as Yes; values below receive No.

Answer whether AUC(0-inf) of O=C(c1c(F)cccc1-n1nccn1)N1CC2CN(c3nc4cc(Cl)ccc4o3)CC2C1 (centres unmarked) [Example 3] is greater than or equal to 800 ng·h/mL.
Yes

Now consider O=C(c1ccccc1-n1nccn1)N1CC2CN(c3ncc4cc(F)ccc4n3)CC2C1 (centres unmarked) [Example 13] and answer again.
No

Now consider Cc1ccc(-n2nccn2)c(C(=O)N2CC3CN(c4nc5cc(Cl)ccc5o4)CC3C2)c1 (centres unmarked) [Example 1] and answer again.
No

Now consider Cc1ccc(-n2nccn2)c(C(=O)N2CC3CN(c4ncc5cc(F)ccc5n4)CC3C2)c1 (centres unmarked) [Example 12] and answer again.
No

====

Experiment notes: Pharmacokinetic evaluation after intravenous or gavage administration to rats
Type: in vivo, SD rats
Condition parameters: SD, rat, in vivo, iv, 1 mg/kg
Metric: AUC(0-inf) (ng·h/mL)
Numeric only. Scale: ng·h/mL

What does the data say about its AUC(0-inf)? Entry: O=C(c1ccccc1-n1nccn1)N1CC2CN(c3nc4cc(Cl)ccc4o3)CC2C1 (centres unmarked)
551

Now consider Cc1ccc(-n2nccn2)c(C(=O)N2CC3CN(c4ncc5cc(F)ccc5n4)CC3C2)c1 (centres unmarked) and answer again.
460

Now consider Cc1ccc(-n2nccn2)c(C(=O)N2CC3CN(c4nc5cc(Cl)ccc5o4)CC3C2)c1 (centres unmarked) and answer again.
417

Now consider O=C(c1ccccc1-n1nccn1)N1CC2CN(c3ncc4cc(F)ccc4n3)CC2C1 (centres unmarked) and answer again.
865

Now consider O=C(c1c(F)cccc1-n1nccn1)N1CC2CN(c3nc4cc(Cl)ccc4o3)CC2C1 (centres unmarked) and answer again.
626

====

Field: AUC(0-inf). Provide a value for each of the compounds that follow.
Experiment notes: Pharmacokinetic evaluation after intravenous or gavage administration to dogs
Assay type: in vivo, Beagle dogs
Condition parameters: beagle, dog, in vivo, iv, 1 mg/kg
Numeric only. Scale: ng·h/mL

What does the data say about its AUC(0-inf)? Entry: O=C(c1c(F)cccc1-n1nccn1)N1CC2CN(c3nc4cc(Cl)ccc4o3)CC2C1 (stereo not drawn)
8330

Now consider Cc1ccc(-n2nccn2)c(C(=O)N2CC3CN(c4nc5cc(Cl)ccc5o4)CC3C2)c1 (stereo not drawn) and answer again.
2710

Now consider Cc1ccc(-n2nccn2)c(C(=O)N2CC3CN(c4ncc5cc(F)ccc5n4)CC3C2)c1 (stereo not drawn) and answer again.
1140

====

Experiment notes: Pharmacokinetic evaluation after intravenous or gavage administration to dogs
Assay type: in vivo, Beagle dogs
Condition parameters: beagle, dog, in vivo; dogs, po, 5 mg/kg; read-out: AUCINF
Metric: AUC(0-inf) (ng·h/mL)
Numeric only. Scale: ng·h/mL

What does the data say about its AUC(0-inf)? Entry: Cc1ccc(-n2nccn2)c(C(=O)N2CCN(c3nc4cc(Cl)ccc4o3)CC[C@H]2C)c1 [suvorexant, reference compound]
14300

====

Experiment notes: Pharmacokinetic evaluation after intravenous or gavage administration to dogs
Type: in vivo, Beagle dogs
Condition parameters: beagle, dog, in vivo; dogs, po, 5 mg/kg; read-out: MRTINF
Metric: MRT inf (h)
Numeric only. Scale: h

What does the data say about its MRT inf? Entry: Cc1ccc(-n2nccn2)c(C(=O)N2CCN(c3nc4cc(Cl)ccc4o3)CC[C@H]2C)c1 [suvorexant, reference compound]
7.2

====

Experiment notes: Pharmacokinetic evaluation after intravenous or gavage administration to rats
Assay type: in vivo, SD rats
Condition parameters: SD, rat, in vivo, po, 2.5 mg/kg
Metric: F (%)
Numeric only. Scale: %

What does the data say about its F? Entry: O=C(c1ccccc1-n1nccn1)N1CC2CN(c3nc4cc(Cl)ccc4o3)CC2C1 (centres unmarked) [Example 2]
57.3

Now consider Cc1ccc(-n2nccn2)c(C(=O)N2CC3CN(c4ncc5cc(F)ccc5n4)CC3C2)c1 (centres unmarked) [Example 12] and answer again.
39.3

Now consider O=C(c1c(F)cccc1-n1nccn1)N1CC2CN(c3nc4cc(Cl)ccc4o3)CC2C1 (centres unmarked) [Example 3] and answer again.
57.9

Now consider Cc1ccc(-n2nccn2)c(C(=O)N2CC3CN(c4nc5cc(Cl)ccc5o4)CC3C2)c1 (centres unmarked) [Example 1] and answer again.
50.1

Now consider O=C(c1ccccc1-n1nccn1)N1CC2CN(c3ncc4cc(F)ccc4n3)CC2C1 (centres unmarked) [Example 13] and answer again.
34.7

====

Experiment notes: Pharmacokinetic evaluation after intravenous or gavage administration to dogs
Type: in vivo, Beagle dogs
Condition parameters: beagle, dog, in vivo, po, 5 mg/kg
Metric: MRT inf (h)
Numeric only. Scale: h

What does the data say about its MRT inf? Entry: Cc1ccc(-n2nccn2)c(C(=O)N2CC3CN(c4nc5cc(Cl)ccc5o4)CC3C2)c1 (stereo not drawn) [Example 1]
6.84

Now consider O=C(c1c(F)cccc1-n1nccn1)N1CC2CN(c3nc4cc(Cl)ccc4o3)CC2C1 (stereo not drawn) [Example 3] and answer again.
4.59

Now consider Cc1ccc(-n2nccn2)c(C(=O)N2CC3CN(c4ncc5cc(F)ccc5n4)CC3C2)c1 (stereo not drawn) [Example 12] and answer again.
3.11

====

Assayed target: humanized OX2 receptor (Homo sapiens, UniProt O43614)
Construct: expressed in transfected cells; host or cells: HEK-293 cells
Sequence (O43614 whole entry): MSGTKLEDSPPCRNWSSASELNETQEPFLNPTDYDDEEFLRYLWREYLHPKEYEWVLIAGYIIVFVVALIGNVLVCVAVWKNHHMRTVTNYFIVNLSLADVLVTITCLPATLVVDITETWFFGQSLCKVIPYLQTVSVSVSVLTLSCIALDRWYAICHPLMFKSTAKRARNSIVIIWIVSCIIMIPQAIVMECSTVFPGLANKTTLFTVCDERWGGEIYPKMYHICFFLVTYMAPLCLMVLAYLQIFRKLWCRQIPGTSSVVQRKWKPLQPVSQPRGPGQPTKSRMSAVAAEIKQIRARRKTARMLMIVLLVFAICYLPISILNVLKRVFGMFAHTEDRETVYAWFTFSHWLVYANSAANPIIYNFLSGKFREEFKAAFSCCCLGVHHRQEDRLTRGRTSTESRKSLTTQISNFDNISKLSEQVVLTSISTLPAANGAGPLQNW
Experiment notes: Antagonistic effect on humanized OX2 receptor, calcium flux by fluorescence detection in HEK-293 cells
Format: cell-based
Condition parameters: HEK-293 cells, calcium flux induced by 10 nM orexin B; read-out: OX2 IC50
Field: pIC50. Provide a value for each of the compounds that follow.
Kindly note that pIC50 refers to -log10 of the concentration in mol/L and answer with the value alone.

What does the data say about its pIC50? Entry: O=C(c1ccccc1-n1nccn1)N1CC2CN(c3nc4cc(F)ccc4o3)CC2C1 (stereo not drawn)
6.63

Now consider Cc1ccc(-n2nccn2)c(C(=O)N2CC3CN(c4nc5cc(Cl)ccc5o4)CC3C2)c1 (stereo not drawn) and answer again.
6.51

Now consider Cc1ccc(-n2nccn2)c(C(=O)N2CC3CN(c4ncc5cc(F)ccc5n4)CC3C2)c1 (stereo not drawn) and answer again.
6.85
